# System: human IgG
# Format: binding
# reported.conditions: Table 14; average ligand density 1.8 μM/ml
assay.readout: % IgG Capture - Batch Binding, Human IgG (%)
# output: bare number, implied unit %

Study these solved cases before continuing.
| substance | recorded.result |
| --- | --- |
| Ac-GDNPMCWRAHWWEDAYCINHEPGPEGGGK-NH2 (not fully specified (bridges); printed as Ac-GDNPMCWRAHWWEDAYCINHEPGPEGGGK-NH2; cysteine pairing not given here) [DX1072] | 49 |
| Ac-GDNPMCWRASWWEDAYCINHEPGPEGGGK-NH2 (not fully specified (bridges); printed as Ac-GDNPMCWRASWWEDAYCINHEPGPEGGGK-NH2; cysteine pairing not given here) [DX1071] | 45 |
| Ac-GDNPMCWKKSWWEDAYCINHGTPGPEGGGK-NH2 (not fully specified (bridges); printed as Ac-GDNPMCWKKSWWEDAYCINHGTPGPEGGGK-NH2; cysteine pairing not given here) [DX596] | 72 |
| Ac-GDSWNCAFHHNEMVWCDDGGTPGPEGGGK-NH2 (not fully specified (bridges); printed as Ac-GDSWNCAFHHNEMVWCDDGGTPGPEGGGK-NH2; cysteine pairing not given here) [DX597] | 77 |
| Ac-GDWGECTVTSYGELIWCGGLEPGPEGGGK-NH2 (not fully specified (bridges); printed as Ac-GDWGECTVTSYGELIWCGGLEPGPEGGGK-NH2; cysteine pairing not given here) [DX1070] | 91 |

Please turn your attention to the following entry.
Lookup: # value lookup — system human IgG, readout % IgG Capture - Batch Binding, Human IgG, item Ac-GDRRACSRDWSGALVWCAGHEPGPEGGGK-NH2 (not fully specified (bridges); printed as Ac-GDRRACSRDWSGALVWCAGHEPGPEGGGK-NH2; cysteine pairing not given here) [DX253]
Found: 71
